target: c-src (Homo sapiens, UniProt P12931); assay: Kinase inhibition at 10 μM, c-src; assay type: biochemical; conditions: 10 μM of Compound; read-out: Percentage Inhibition of c-src
Sequence (P12931 whole entry, species assumed): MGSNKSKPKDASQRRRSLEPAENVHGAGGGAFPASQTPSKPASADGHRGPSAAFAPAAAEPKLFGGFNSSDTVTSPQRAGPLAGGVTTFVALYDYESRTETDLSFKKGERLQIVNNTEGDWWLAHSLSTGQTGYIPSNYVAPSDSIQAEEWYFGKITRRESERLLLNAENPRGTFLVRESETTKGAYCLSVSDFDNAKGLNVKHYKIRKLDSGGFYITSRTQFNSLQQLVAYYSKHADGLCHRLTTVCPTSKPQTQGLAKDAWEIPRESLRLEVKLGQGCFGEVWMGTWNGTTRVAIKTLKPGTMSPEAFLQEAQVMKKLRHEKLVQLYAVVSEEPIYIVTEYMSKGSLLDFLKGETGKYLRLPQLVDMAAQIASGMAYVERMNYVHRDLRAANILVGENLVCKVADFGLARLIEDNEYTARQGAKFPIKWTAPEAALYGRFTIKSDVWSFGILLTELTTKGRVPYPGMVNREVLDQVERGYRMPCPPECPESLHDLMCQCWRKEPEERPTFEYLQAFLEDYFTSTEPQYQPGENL
parameter-measured: inhibition at 10 µM

| chemical-structure | measured-on | parameter-measured | data-value |
| --- | --- | --- | --- |
| O=C1NCC/C(=N\Nc2ccccn2)c2c1[nH]c1ccc(Cl)cc21 | c-src (Homo sapiens, UniProt P12931) | inhibition at 10 µM | 92% |

Problem: Recorded inhibition at 10 µM of O=C1NCC/C(=N\Nc2cccnc2)c2c1[nH]c1ccc(Cl)cc21 , please.
Result: 78%

Problem: Continue with O=C1NCC/C(=N\Nc2ccccn2)c2c1[nH]c1ccc(F)cc21
Result: 90%

Problem: Continue with NC1=NC(=O)/C(=C2\CCNC(=O)c3[nH]c4ccc(F)cc4c32)N1
Result: 89%
